TEST SYSTEM: human OCT2 (Homo sapiens, UniProt O15244, S270A)
Sequence (O15244 1-555 S270A): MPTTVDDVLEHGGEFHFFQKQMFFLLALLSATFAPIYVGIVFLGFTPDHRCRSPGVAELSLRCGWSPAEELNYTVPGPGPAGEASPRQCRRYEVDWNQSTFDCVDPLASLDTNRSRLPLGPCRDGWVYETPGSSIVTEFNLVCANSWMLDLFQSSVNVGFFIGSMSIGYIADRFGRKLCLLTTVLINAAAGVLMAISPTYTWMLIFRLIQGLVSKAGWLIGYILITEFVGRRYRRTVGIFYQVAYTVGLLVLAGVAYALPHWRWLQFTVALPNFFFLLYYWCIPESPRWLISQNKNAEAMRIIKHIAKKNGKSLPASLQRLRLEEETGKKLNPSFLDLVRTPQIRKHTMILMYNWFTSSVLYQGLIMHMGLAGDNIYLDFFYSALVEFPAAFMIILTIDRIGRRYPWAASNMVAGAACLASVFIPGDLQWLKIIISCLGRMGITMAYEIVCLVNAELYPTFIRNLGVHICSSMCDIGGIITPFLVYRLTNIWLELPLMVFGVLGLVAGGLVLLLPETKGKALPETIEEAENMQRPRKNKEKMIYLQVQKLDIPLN
EXPERIMENT: ASP+ uptake inhibition in HEK293 cells stably expressing OCT2
SETUP CONDITIONS: read-out: Km of ASP+ transport; OCT2 specific uptake, HEK293 cells
RESULT TYPE: Km
The reply should read as a number followed by its unit.

Data request: I'm curious: which Km was measured for CN(C)c1ccc(C=Cc2cc[n+](C)cc2)cc1 [ASP^+] tested on human OCT2 (Homo sapiens, UniProt O15244, S270A)?
Data returned: 36.4 µM
